- System: SHP-77 (Small Cell Lung Carcinoma)
- experiment: combination Emax (second highest fraction inhibited in the dose matrix, 72 h); higher = more inhibition; extreme values may be limits of the assay
assay_readout: combination Emax

# combination Emax of CCN(CCO)CCCOc1ccc2c(Nc3cc(CC(=O)Nc4cccc(F)c4)[nH]n3)ncnc2c1 [AZD2811] + C[C@@H]1COCCN1C2=NC(=NC(=C2)C3(CC3)[S@](=N)(=O)C)C4=C5C=CNC5=NC=C4 [AZD6738] (first compound max 1 µM, 7x7, partner max 10 µM) = 0.496

Cc1c2c(nn1C)CSCc1cc(n(C)n1)CSc1cc(c3ccccc3c1)OCCCc1c(C(=O)O)n(C)c3c-2c(Cl)ccc13 [AZD5991] + C[C@@H](Nc1cc(F)cc(F)c1)c1cc(C(=O)N(C)C)cc2c(=O)cc(N3CCOCC3)oc12 [AZD8186] (first compound max 1 µM, 7x7, partner max 3 µM) has a reported combination Emax of 0.289

COc1cccc(OCCCN)c1-c1cc(Nc2cnc(C#N)cn2)n[nH]1 [Prexasertib] + O=C(c1cc(Cc2n[nH]c(=O)c3ccccc23)ccc1F)N1CCN(C(=O)C2CC2)CC1 [Olaparib] (first compound max 1 µM, 7x7, partner max 10 µM) has a reported combination Emax of 0.819

Field combination Emax (entry COc1nnc2ccc(N3CCC(c4ccc(OCCN5CCN(C)C(=O)[C@H]5C)cc4)CC3)nn12 [AZD5153] + C=CCn1c(=O)c2cnc(Nc3ccc(N4CCN(C)CC4)cc3)nc2n1-c1cccc(C(C)(C)O)n1 [AZD1775] (first compound max 1 µM, partner max 1 µM) ) reads 0.66

Lookup result for CC1(C)CCC(CN2CCN(c3ccc(C(=O)NS(=O)(=O)c4ccc(NCC5CCOCC5)c([N+](=O)[O-])c4)c(Oc4cnc5[nH]ccc5c4)c3)CC2)=C(c2ccc(Cl)cc2)C1 [Venetoclax] + C1CN(CCC1(C(=O)N[C@@H](CCO)C2=CC=C(C=C2)Cl)N)C3=NC=NC4=C3C=CN4 [Capivasertib] (first compound max 1 µM, 7x7, partner max 3 µM) ; measured combination Emax: 0.402

Data point: NC1(C(=O)N[C@@H](CCO)c2ccc(Cl)cc2)CCN(c2ncnc3[nH]ccc23)CC1 [Capivasertib] + Cn1cnc2c(F)c(Nc3ccc(Br)cc3Cl)c(C(=O)NOCCO)cc21 [Selumetinib] (first compound max 10 µM, 7x7, partner max 10 µM) ; combination Emax = 0.384

Query CN(CCO)CC[C@H](CSc1ccccc1)Nc1ccc(S(=O)(=O)NC(=O)c2ccc(N3CCC([C@@H](O)c4ccccc4-c4ccc(Cl)cc4)CC3)cc2)cc1S(=O)(=O)C(F)(F)F [AZD4320] + CN(C)CCCOc1ccc(-c2ccc3ncc4c(c3c2)n(C2CCOCC2)c(=O)n4C)cn1 [AZD0156] (first compound max 1 µM, 7x7, partner max 1 µM) yields combination Emax of 0.585

The compound listed as CC(=O)c1c(C)c2cnc(Nc3ccc(N4CCNCC4)cn3)nc2n(C2CCCC2)c1=O [Palbociclib] + CC1(C)CCC(CN2CCN(c3ccc(C(=O)NS(=O)(=O)c4ccc(NCC5CCOCC5)c([N+](=O)[O-])c4)c(Oc4cnc5[nH]ccc5c4)c3)CC2)=C(c2ccc(Cl)cc2)C1 [Venetoclax] (first compound max 10 µM, 7x7, partner max 1 µM) has a reported combination Emax of 0.671

Quick note, combination Emax for CS(=O)(=O)CCNCc1ccc(-c2ccc3ncnc(Nc4ccc(OCc5cccc(F)c5)c(Cl)c4)c3c2)o1 [Lapatinib] + Cn1cnc2c(F)c(Nc3ccc(Br)cc3Cl)c(C(=O)NOCCO)cc21 [Selumetinib] (first compound max 10 µM, 7x7, partner max 10 µM) landed at 0.387

Entry under test: C=CCn1c(=O)c2cnc(Nc3ccc(N4CCN(C)CC4)cc3)nc2n1-c1cccc(C(C)(C)O)n1 [AZD1775] + Nc1ccn([C@@H]2O[C@H](CO)[C@@H](O)C2(F)F)c(=O)n1 [Gemcitabine] (first compound max 1 µM, partner max 0.3 µM) . Its combination Emax was 0.676

// sample CC1(C)CCC(CN2CCN(c3ccc(C(=O)NS(=O)(=O)c4ccc(NCC5CCOCC5)c([N+](=O)[O-])c4)c(Oc4cnc5[nH]ccc5c4)c3)CC2)=C(c2ccc(Cl)cc2)C1 [Venetoclax] + C[C@@H](Nc1cc(F)cc(F)c1)c1cc(C(=O)N(C)C)cc2c(=O)cc(N3CCOCC3)oc12 [AZD8186] (first compound max 1 µM, 7x7, partner max 3 µM) , its combination Emax was 0.322

So for CC1(C)CCC(CN2CCN(c3ccc(C(=O)NS(=O)(=O)c4ccc(NCC5CCOCC5)c([N+](=O)[O-])c4)c(Oc4cnc5[nH]ccc5c4)c3)CC2)=C(c2ccc(Cl)cc2)C1 [Venetoclax] + Cn1cnc2c(F)c(Nc3ccc(Br)cc3Cl)c(C(=O)NOCCO)cc21 [Selumetinib] (first compound max 1 µM, 7x7, partner max 3 µM) , the logged combination Emax turned out to be 0.455

Reported combination Emax ( Cc1cc2ncnn2cc1Nc1ncc2c(n1)n(C1CCOCC1)c(=O)n2C [AZD7648] + C[C@@H]1COCCN1C2=NC(=NC(=C2)C3(CC3)[S@](=N)(=O)C)C4=C5C=CNC5=NC=C4 [AZD6738] (first compound max 10 µM, 7x7, partner max 10 µM) ) = 0.493
